SYSTEM_NAME: T1, human SIRPγ-Fc (human)
T1 construct: a signal peptide may be part of the entry
ASSAY_SUMMARY: BLI Octet, antigen-Fc on biosensor;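 further: antigen captured on the biosensor tip and then immersed in solutions of the test antibodies, which act as the analyte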
pKd: −log10 of the molar value.
Quick rule: pKd of at least 9 means T, below that means F.

# example entries with known answers
Reported pKd reaches at least 9 for SIRPAB-6 (antibody, human IgG1, kappa, V domains shown) VH: QVQLQESGPGLVKPSQTLSLTCTVSGGSISSGGYYWSWIRQHPGKGLEWIGYIYYSGSTYYNPSLKSRVTISVDTSKNQFSLKLSSVTAADTAVYYCAREGLDGSYGSSAWGQGTLVTVSS VL: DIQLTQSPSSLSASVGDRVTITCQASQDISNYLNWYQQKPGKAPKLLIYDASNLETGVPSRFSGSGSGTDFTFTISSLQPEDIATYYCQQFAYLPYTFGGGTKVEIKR ?
F

hey, is pKd for this one >= 9? SIRPAB-2 (antibody, human IgG1, kappa, V domains shown) VH: QVQLQESGPGLVKPSQTLSLTCTVSGGSISSGGDYWAWIRQHPGKGLEWIGYIYPSGFTYYNPSLKSRVTISVDTSKNQFSLKLSSVTAADTAVYYCAREGYHSGMDVWGQGTTVTVSS VL: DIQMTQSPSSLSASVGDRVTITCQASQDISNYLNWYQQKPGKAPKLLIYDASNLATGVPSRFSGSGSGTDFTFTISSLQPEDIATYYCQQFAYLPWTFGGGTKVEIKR
T

Reported pKd reaches at least 9 for SIRPAB-5 (antibody, human IgG1, kappa, V domains shown) VH: QVQLQESGPGLVKPSQTLSLTCTVSGGSISSGPAYWSWIRQHPGKGLEWIGTIYYSGSTFYNPSLKSRVTISVDTSKNQFSLKLSSVTAADTAVYYCAREGYHSGMDVWGQGTTVTVSS VL: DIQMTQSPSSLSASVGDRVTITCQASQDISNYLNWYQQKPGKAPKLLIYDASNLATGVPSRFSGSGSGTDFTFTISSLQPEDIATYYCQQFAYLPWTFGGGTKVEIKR ?
T

Others:
Form field: pKd at least 9? Entry: SIRPAB-3 (antibody, human IgG1, kappa, V domains shown) VH: QVQLQESGPGLVKPSQTLSLTCTVSGGSISSGGWYWQWIRQHPGKGLEWIGTIYYSGSTFYNPSLKSRVTISVDTSKNQFSLKLSSVTAADTAVYYCAREGYHSGMDVWGQGTTVTVSS VL: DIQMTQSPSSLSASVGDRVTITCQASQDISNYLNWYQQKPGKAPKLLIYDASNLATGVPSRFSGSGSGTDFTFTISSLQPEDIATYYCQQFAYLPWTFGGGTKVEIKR
T
